Recorded values, source PubChem BioAssay AID1159580.

test-protocol: chemical genetic growth profiling, strain panel (AID 1159580);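 further: tested at 20 µM; growth read once vehicle control cultures reached saturation at 30 °C; 1 = growth at the plate median or of vehicle wells; lower values mean less growth of the strain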
protocol-conditions: S. cerevisiae deletion strains, growth OD, locus YGL240W, strain doc1
Screen size: about 5,500 compounds; about 2,000 (36%) were called active. About 18% were inconclusive and are not listed. No stated cut-off is given here; in the data, active means normalized growth mostly below about 0.91 (no sharp cut-off); inconclusive means no clear call, values can overlap the other calls; inactive means mostly above about 0.92. This is one part of the list.
In this exercise, the only acceptable responses are 1 (yes) = active, 0 (no) = inactive

Consider the following illustrative entries.
# molecule, cat
measured = [
    ("CC1=CC2C(CC1=O)C(C)=CCC2C(C)C (stereo unspecified)", "0 (no)"),
    ("COc1ccc(CCN2CCC(Nc3nc4ccccc4n3Cc3ccc(F)cc3)CC2)cc1", "0 (no)"),
    ("C=C1C(=O)O[C@@H]2C3O[C@]3(C)CC/C=C(\\C)CC[C@@H]12 (stereo partly specified)", "0 (no)"),
]

Prompt line: Please let me know the test result on file for CCOC(=O)Nc1nc2ccccc2[nH]1 .
Response line: 0 (no)

Prompt line: Moving on to the next molecule: C[C@H]1COC2=C1C(=O)C(=O)c1c2ccc2c1CCCC2(C)C
Response line: 1 (yes)

Prompt line: Moving on to the next molecule: CC(C)C(C)/C=C/C(C)C1CCC2C3=CC=C4CC(O)CCC4(C)C3CCC21C (stereo unspecified)
Response line: 0 (no)

Prompt line: Moving on to the next molecule: CC(=O)OC1CCC2(C)C(=CC=C3C2CCC2(C)C3CCC2C(C)/C=C/C(C)C(C)C)C1(C)C (stereo unspecified)
Response line: 0 (no)

Prompt line: Moving on to the next molecule: CCOC(=O)c1ccc(O)cc1
Response line: 0 (no)

Prompt line: Moving on to the next molecule: Cc1coc2c1C(=O)C(=O)c1c-2ccc2c1CCCC2(C)C
Response line: 1 (yes)

Prompt line: Moving on to the next molecule: O=c1[nH]oc2c1CCNC2
Response line: 0 (no)

Prompt line: Moving on to the next molecule: CC(C)C(C)/C=C/C(C)[C@H]1CCC2C3=CCC4CC(=O)CC[C@]4(C)C3CC[C@@]21C (stereo partly specified)
Response line: 0 (no)
